system: HL-60(TB) leukemia; assay: NCI-60 one-dose screen, 48 h; settings: 10 µM unless noted
This is part of a sample that, as a whole, favours compounds with a hit. Of some 83,000 tested, about 20% had one in any assay. The source made the active and inactive calls. How the source made its calls: active means growth percent below 10; inactive means the rest.
Can you answer with just one of these options? T (active), F (inactive)

Input line: Please state the recorded outcome for this compound: CCCN1CC(c2ccc(OC)c(OC)c2)=C(c2cn(C(=O)OCC)c3ccccc23)C1=O
Output line: F

Input line: Please state the recorded outcome for this compound: O=c1cc(C2NNC(=S)N2)c2ccc3ccccc3c2o1 (centres undefined)
Output line: F

Input line: Please state the recorded outcome for this compound: COc1ccc(C2C=C(c3ccc(Cl)cc3)N=C3SC=C(C)N32)c(Br)c1 (centres undefined)
Output line: T

Input line: Please state the recorded outcome for this compound: O=C(/C=C/c1ccccc1Br)c1cccc(OCCCCOc2cccc(C(=O)/C=C/c3ccccc3Br)c2)c1
Output line: F

Input line: Please state the recorded outcome for this compound: CC12O[C@H](C[C@@H](OC(=O)c3ccccc3)[C@H]1O)n1c3ccccc3c3c4c(c5c6ccccc6n2c5c31)C(=O)NC4=O
Output line: F

Input line: Please state the recorded outcome for this compound: CCCc1cc(=O)n2c(C(=O)Nc3ccccc3OC)c(C(=O)Nc3ccc(F)cc3)sc2n1
Output line: F

Input line: Please state the recorded outcome for this compound: NC(=O)C(=O)c1ccccc1NC=O
Output line: F

Input line: Please state the recorded outcome for this compound: COc1ccc(-c2nn(-c3cccc(NC(=O)Nc4ccccc4)c3)cc2-c2ccncc2)cc1Cl
Output line: T

Input line: Please state the recorded outcome for this compound: Brc1c[n+](Cc2ccc3ccccc3c2)cn1Cc1ccc2ccccc2c1
Output line: T
